FYI, the data here is from patent US5006535A.

test system: pentagastrin stimulated gastric acid secretion; experiment: Rat Lumen Perfused Stomach (pentagastrin stimulated gastric acid secretion); assay type: in vivo; details: i.v., 10 μmole/kg
Reported % inhibition of pentagastrin stimulated gastric acid secretion values are given for each entry in this list.
endpoint name: % inhibition of pentagastrin stimulated gastric acid secretion

{"compound": "CCOC(=O)c1cnc2c(OC)cccc2c1Nc1cscc1OC [Example 5]", "endpoint value": "41%"}
{"compound": "CCCC(=O)c1cnc2c(OC)cccc2c1Nc1ccsc1CC [Example 2]", "endpoint value": "61%"}
{"compound": "CCCC(=O)c1cnc2c(OC)cccc2c1Nc1sccc1C [Example 4]", "endpoint value": "58%"}
{"compound": "CCCC(=O)c1cnc2c(OC)cccc2c1Nc1ccsc1C(=O)OC [Example 3]", "endpoint value": "48%"}
